Readout: flash point (°C)

[
  {
    "Molecule": "SC1CCCCC1",
    "Value Reported": 43
  }
]

1 = CCCCC1CCCCC1
2 = CCCC(C)C(C)C (stereo unspecified)
3 = CCOC(=O)c1ccccc1 [ethyl benzoate]
stdin: Rank items: key flash point, increasing. Give the labels in the order specified.
stdout: 2, 1, 3

P = Cc1ccccc1Cl
Q = FC1CCCCC1
stdin: From the recorded data, which exceeds the other in flash point: P or Q ? Returns: label corresponding to the selected item.
stdout: P

1 = Oc1ccc(O)cc1 [hydroquinone]
2 = CCC(O)C(C)C (stereo unspecified)
stdin: I'm curious, which of these has a smaller flash point number: 1 or 2 ? Returns: label corresponding to the selected item.
stdout: 2
(2: 46 °C, 1: 165 °C)

a = SC1CCCC1
b = CCc1ccccc1CC
stdin: I'm curious, which of these has a smaller flash point number: a or b ? Returns: label corresponding to the selected item.
stdout: a

====

Readout: flash point (°C)

[
  {
    "Compound": "C=CC(=O)OCCCC [butyl acrylate]",
    "Output Unit": "°C",
    "flash point": 39
  }
]

1 = CCCCCCCO
2 = CC#CCCCCC
3 = CCN1CCCCC1
4 = O=C1CCC1
stdin: List items by flash point in falling order. Give the labels in the order specified.
stdout: 1, 2, 3, 4

P = C1=CCCC=C1
Q = C=CC(C)=CC
R = CC=Cc1ccc(OC)cc1
stdin: List items by flash point in falling order. Give the labels in the order specified.
stdout: R, P, Q
(R: 90 °C, P: 26 °C, Q: -28 °C)

====

Readout: flash point (°C)

Past entries and their recorded results:
[
  {
    "Compound": "CCCSCCC [dipropylsulfide]",
    "Readout": "flash point",
    "Output Unit": "°C",
    "Value Reported": 28
  },
  {
    "Compound": "Cc1ccoc1 [3-methylfuran]",
    "Readout": "flash point",
    "Output Unit": "°C",
    "Value Reported": -22
  },
  {
    "Compound": "C#CCCCCCCCCCCC [1-tridecyne]",
    "Readout": "flash point",
    "Output Unit": "°C",
    "Value Reported": 93
  },
  {
    "Compound": "CCC(C)C(C)O (centres undefined) [3-methyl-2-pentanol]",
    "Readout": "flash point",
    "Output Unit": "°C",
    "Value Reported": 41
  },
  {
    "Compound": "CCCC(CCC)CCC [4-propylheptane]",
    "Readout": "flash point",
    "Output Unit": "°C",
    "Value Reported": 35
  },
  {
    "Compound": "CCCCCCCC(O)CC (centres undefined) [3-decanol]",
    "Readout": "flash point",
    "Output Unit": "°C",
    "Value Reported": 99
  }
]

a = CSCc1ccccc1 [benzylmethylsulfide]
b = CC(=O)OC(C)C [isopropylacetate]
stdin: From the recorded data, which exceeds the other in flash point: a or b ? Returns: label corresponding to the selected item.
stdout: a

a = C=CCOc1ccccc1 [allylphenylether]
b = CC#CC(C)(C)C [4,4-dimethyl-2-pentyne]
stdin: I'm curious, which of these has a smaller flash point number: a or b ? Returns: label corresponding to the selected item.
stdout: b
(b: -10 °C, a: 63 °C)

A = CCc1cccc(Br)c1 [1-bromo-3-ethylbenzene]
B = CNC(C)C [N-methylisopropylamine]
C = NCCCN [1,3-propanediamine]
D = CC#CCCCCC [2-octyne]
stdin: List items by flash point in falling order. Give the labels in the order specified.
stdout: A, C, D, B
(A: 71 °C, C: 48 °C, D: 24 °C, B: -20 °C)

I = CCCCCCC(=O)OC [methylheptanoate]
II = SCCCCCS [1,5-pentanedithiol]
III = CC1C=CCCC1 (centres undefined) [3-methylcyclohexene]
IV = C[C@H]1CC[C@@H](C)CC1 [cis-1,4-dimethylcyclohexane]
stdin: Rank items: key flash point, increasing. Give the labels in the order specified.
stdout: III, IV, I, II

A = CCCCCO [1-pentanol]
B = CCCCCCCCCC=O [decanal]
C = CCCc1ccccc1 [propylbenzene]
stdin: Rank items: key flash point, increasing. Give the labels in the order specified.
stdout: C, A, B
(C: 30 °C, A: 49 °C, B: 83 °C)

A = C=CCCCO [4-penten-1-ol]
B = CC(=O)C(C)C [3-methyl-2-butanone]
stdin: I'm curious, which of these has a smaller flash point number: A or B ? Returns: label corresponding to the selected item.
stdout: B
(B: -1 °C, A: 43 °C)

A = CCC(O)C(C)C (centres undefined) [2-methyl-3-pentanol]
B = CCCCCCCCCCCC=O [dodecanal]
stdin: I'm curious, which of these has a smaller flash point number: A or B ? Returns: label corresponding to the selected item.
stdout: A
(A: 46 °C, B: 102 °C)

a = C1CCCCCCCC1 [cyclononane]
b = C#CCCCCCCCCC [1-undecyne]
c = CCCCC(=O)OC [methylpentanoate]
stdin: Rank items: key flash point, increasing. Give the labels in the order specified.
stdout: c, a, b
